# System: HT-29
# run.description: NCI tumour cell line growth inhibition, 48 h
The source made the active and inactive calls. Cut-off read from the data, not from the text of the source: active = GI50 up to about 1.1 µM and inactive = higher.
reported.endpoint: GI50

compound="CCCOC1OC(CS(=O)(=O)O)C(OC(C)=O)C(OC(C)=O)C1OC(C)=O (stereo not given)" target_or_test_system=HT-29 result="> 100 µM (inactive)"
compound=CCCCN(C)C(=O)C1=C(C)NC(C)=C(C(=O)N(C)CCCC)C1 target_or_test_system=HT-29 result="> 100 µM (inactive)"
compound=CC(=O)c1ccc2c3c1[C@@H]1O[C@@H]1c1cccc(c1-3)[C@@H]1O[C@H]21 target_or_test_system=HT-29 result="5.55 µM (inactive)"
compound=O=C1c2cccc(O)c2C(=O)c2cccc(O)c21 target_or_test_system=HT-29 result="> 100 µM (inactive)"
compound="COC(CNC(=O)C(C)NC(=O)C(C)NC(=O)c1ccccc1)OC (stereo not given)" target_or_test_system=HT-29 result="> 100 µM (inactive)"
compound=CC(C)Oc1cccc(N2C(NCc3c[nH]c4ccccc34)=Nc3ccncc3S2(=O)=O)c1 target_or_test_system=HT-29 result="25.1 µM (inactive)"
compound=C/C(=N/NC(=S)N1CCCCCC1)c1ccccc1O target_or_test_system=HT-29 result="7.73 µM (inactive)"
compound=CN(C)CCN1C(=O)CC[C@@]2(C)C1=CC[C@@H]1[C@@H]2CC[C@@]2(C)[C@H]1CC[C@]2(C)O target_or_test_system=HT-29 result="39.8 µM (inactive)"
compound=CC(C)CC1C(=O)OC(C)(C)OC1=O target_or_test_system=HT-29 result="> 100 µM (inactive)"
compound=CC(=O)Nc1ccc(S(=O)(=O)c2nnc(NC(C)=O)s2)cc1 target_or_test_system=HT-29 result="> 100 µM (inactive)"

# credit: ChEMBL document CHEMBL1201862
